The following compounds are listed with their measured remaining activity at 10 µM values.
molecular target: hMMP 2 (Homo sapiens, UniProt P08253); construct: purchased Abnova; experiment: Residual enzyme activity of other metalloproteases; format: biochemical; conditions: 10 μM inhibitor; read-out: Residual enzyme activity MMP2
Sequence (P08253 110-660): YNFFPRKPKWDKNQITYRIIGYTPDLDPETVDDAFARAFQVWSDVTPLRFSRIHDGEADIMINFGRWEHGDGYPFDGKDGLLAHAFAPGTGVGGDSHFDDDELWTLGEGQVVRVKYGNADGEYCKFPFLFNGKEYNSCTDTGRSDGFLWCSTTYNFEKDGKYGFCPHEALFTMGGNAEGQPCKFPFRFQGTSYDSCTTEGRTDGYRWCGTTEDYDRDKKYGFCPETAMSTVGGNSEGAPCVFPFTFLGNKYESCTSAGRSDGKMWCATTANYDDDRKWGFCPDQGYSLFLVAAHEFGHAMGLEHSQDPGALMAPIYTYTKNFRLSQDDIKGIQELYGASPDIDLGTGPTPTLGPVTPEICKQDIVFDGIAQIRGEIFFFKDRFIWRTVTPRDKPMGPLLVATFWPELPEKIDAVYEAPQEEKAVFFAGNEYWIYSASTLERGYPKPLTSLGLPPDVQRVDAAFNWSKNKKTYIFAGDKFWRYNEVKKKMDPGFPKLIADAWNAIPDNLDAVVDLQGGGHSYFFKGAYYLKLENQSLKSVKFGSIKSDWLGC
Note to self: number, then unit, no commentary.

- record-smiles: "O=C(Cc1c(-c2cc(F)c(O)c(Cl)c2)n[nH]c1-c1ccccc1)NO"
  subject-of-test: "hMMP 2 (Homo sapiens, UniProt P08253)"
  recorded-measurement: "66%"
- record-smiles: "O=C(Cc1c(-c2ccccc2)nn(Cc2ccc(Cl)c(O)c2F)c1-c1ccccc1)NO"
  subject-of-test: "hMMP 2 (Homo sapiens, UniProt P08253)"
  recorded-measurement: "69%"
- record-smiles: "O=C(Cc1c(-c2ccccc2)nn(Cc2ccc(C(=O)O)cc2)c1-c1ccccc1)NO"
  subject-of-test: "hMMP 2 (Homo sapiens, UniProt P08253)"
  recorded-measurement: "85%"
- record-smiles: "COc1ccc(-c2n[nH]c(-c3ccccc3)c2CC(=O)NO)cc1OC"
  subject-of-test: "hMMP 2 (Homo sapiens, UniProt P08253)"
  recorded-measurement: "83%"
- record-smiles: "O=C(Cc1c(-c2ccccc2)noc1-c1ccccc1)NO"
  subject-of-test: "hMMP 2 (Homo sapiens, UniProt P08253)"
  recorded-measurement: "87%"
- record-smiles: "O=C(Cn1c(-c2ccccc2)cc2ccccc21)NO"
  subject-of-test: "hMMP 2 (Homo sapiens, UniProt P08253)"
  recorded-measurement: "85%"
- record-smiles: "O=C(Cn1c(-c2ccccc2)nnc1-c1ccccc1)NO"
  subject-of-test: "hMMP 2 (Homo sapiens, UniProt P08253)"
  recorded-measurement: "95%"
- record-smiles: "O=C(Cc1c(-c2ccccc2)n[nH]c1-c1ccccc1)NO"
  subject-of-test: "hMMP 2 (Homo sapiens, UniProt P08253)"
  recorded-measurement: "104%"

Look at this compound and give its reported remaining activity at 10 µM. "O=C(Cc1c(-c2cccc(C(=O)O)c2)n[nH]c1-c1ccc(Cl)c(O)c1F)NO"
95%

How about this compound: "O=C(Cn1c(-c2ccccc2)nc2ccccc21)NO"
89%

Now the same for "O=C(Cn1c(-c2ccccc2)ccc1-c1ccccc1)NO"
83%

Let us now turn to "O=C(CCc1c(-c2ccccc2)n[nH]c1-c1ccccc1)NO"
97%

Another compound: "O=C(Cc1c(-c2ccc3c(c2)OCO3)n[nH]c1-c1ccccc1)NO"
41%

What do you have for "O=C(CCc1c(-c2ccccc2)noc1-c1ccccc1)NO" ?
98%

Consider next the compound "O=C(Cc1c(-c2ccccc2)nn(Cc2ccc3c(c2)OCO3)c1-c1ccccc1)NO" in the same way.
77%

Queued: "COc1cccc(-c2n[nH]c(-c3ccccc3)c2CC(=O)NO)c1"
78%

// repeat for "O=C(Cc1c(-c2ccccc2)nn(Cc2cccc(C(=O)O)c2)c1-c1ccccc1)NO" and report
89%

----------
molecular target: hMeprin β (Homo sapiens); experiment: Enzymatic assay, quenched peptide substrate cleavage, method A; assay type: biochemical; details: geometric mean (geometric SD factor in parentheses), read-out: Meprin beta IC50
Sequence (Q16820 62-701): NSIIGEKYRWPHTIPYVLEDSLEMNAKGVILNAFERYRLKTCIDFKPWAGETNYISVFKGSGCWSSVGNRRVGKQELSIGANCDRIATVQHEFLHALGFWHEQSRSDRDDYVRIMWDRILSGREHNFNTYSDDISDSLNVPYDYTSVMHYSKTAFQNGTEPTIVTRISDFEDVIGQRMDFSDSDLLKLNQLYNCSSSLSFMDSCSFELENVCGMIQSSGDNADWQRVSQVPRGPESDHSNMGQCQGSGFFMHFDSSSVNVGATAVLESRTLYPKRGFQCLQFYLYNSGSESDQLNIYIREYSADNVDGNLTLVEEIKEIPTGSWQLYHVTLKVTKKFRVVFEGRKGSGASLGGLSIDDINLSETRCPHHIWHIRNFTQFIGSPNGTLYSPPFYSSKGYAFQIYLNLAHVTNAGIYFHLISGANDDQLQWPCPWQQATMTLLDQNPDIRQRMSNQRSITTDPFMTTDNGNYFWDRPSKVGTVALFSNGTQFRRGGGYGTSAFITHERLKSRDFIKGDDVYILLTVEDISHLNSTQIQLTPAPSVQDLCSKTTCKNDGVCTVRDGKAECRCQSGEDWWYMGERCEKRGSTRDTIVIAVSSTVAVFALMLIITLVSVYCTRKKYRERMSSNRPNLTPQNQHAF
measured-endpoint: pIC50
In textbook form, pIC50 equals minus log to base ten of the concentration in mol/L.

In the examples that follow, each entry is paired with its recorded pIC50.
- record-smiles: "O=C(Cc1c(-c2ccccc2)noc1-c1ccccc1)NO"
  pIC50: 6.08
- record-smiles: "O=C(CCn1nc(-c2ccccc2)cc1-c1ccccc1)NO"
  pIC50: 4.81
- record-smiles: "O=C(CNc1c(-c2ccccc2)nc2ccccn12)NO"
  pIC50: 5.15
- record-smiles: "O=C(CNc1c(-c2ccc3c(c2)OCCO3)nc2ccccn12)NO"
  pIC50: 5.50

Continue with the next molecule.
What value of pIC50 has been recorded for this entry: "O=C(CCc1c(-c2ccccc2)n[nH]c1-c1ccccc1)NO"
5.09

Hello, the source for this data is patent US20250388544A1, in case you need it.
